- Assay procedure: Tmax in Sprague-Dawley rat at 32 mg/kg, po
- Type: ADME, organism-based
- Conditions: in vivo
Readout: Tmax (h)
Please respond with the number in h and leave the unit unwritten.

Reported Tmax ( `Nc1ccn([C@@H]2CS[C@H](CO)O2)c(=O)n1` ) = 5

---

- Assay procedure: Oral bioavailability in Sprague-Dawley rat at 32 mg/kg
- Assay type: ADME, organism-based
- Conditions: in vivo
Readout: bioavailability
Your reply should be a number followed by the unit it is expressed in.

Reported bioavailability ( `Nc1ccn([C@@H]2CS[C@H](CO)O2)c(=O)n1` ) = 18.7%

---

- Assay procedure: Cmax in Sprague-Dawley rat at 32 mg/kg, po
- Type: ADME, organism-based
- Set-up: dose 32 mg/kg, route oral
- Conditions: in vivo
Readout: Cmax (ng/mL)
Please respond with the number in ng/mL and leave the unit unwritten.

Reported Cmax ( `Nc1ccn([C@@H]2CS[C@H](CO)O2)c(=O)n1` ) = 274
